FYI, the data here is from patent US20120214862A1.

test system: human Factor 7 mRNA; assay: Dose-dependent antisense inhibition of human Factor 7 in HepB3 cells, transfection with electroporation; type: cell-based; settings: 25 μM, 16 hours (Example 7, Table 15)
In the oligonucleotide strings, read from the 5' end, every base follows the letter of its sugar. An asterisk marks phosphorothioate; unmarked linkages are phosphodiester. Other units and linkages are bracketed, terminal groups are in braces. A string of capitals states the bases alone. e = 2'-O-(2-methoxyethyl) (MOE); [5mC] = 5-methylcytosine; d = 2'-deoxy (DNA)
We begin with a simple list: items and their reported percent inhibition of Factor 7 mRNA, relative to untreated control cells.
quantity.kind: percent inhibition of Factor 7 mRNA, relative to untreated control cells (%)

{"columns": ["substance", "reported.value"],
 "data": [
  ["422087 (antisense e[5mC]*eA*eT*eG*e[5mC]*dA*dT*dG*dG*dT*dG*dA*dT*dG*d[5mC]*eT*eT*e[5mC]*eT*eG) [compound 422087]", 57],
  ["422217 (antisense eG*eA*eG*dT*dT*d[5mC]*dT*dG*d[5mC]*dA*dG*dG*dA*dG*d[5mC]*dG*dG*e[5mC]*e[5mC]*eT) [compound 422217]", 55],
  ["407939 (antisense eT*eG*e[5mC]*eA*eG*d[5mC]*d[5mC]*d[5mC]*dG*dG*d[5mC]*dA*d[5mC]*d[5mC]*d[5mC]*eA*eG*e[5mC]*eG*eA) [compound 407939]", 56],
  ["422177 (antisense e[5mC]*e[5mC]*e[5mC]*dG*d[5mC]*d[5mC]*dG*dG*d[5mC]*dT*d[5mC]*dT*dG*d[5mC]*dT*d[5mC]*dA*eT*e[5mC]*e[5mC]) [compound 422177]", 21],
  ["422130 (antisense eG*e[5mC]*e[5mC]*eT*eG*dA*dG*dG*d[5mC]*d[5mC]*dA*dG*d[5mC]*dA*dG*eA*eT*e[5mC]*eA*e[5mC]) [compound 422130]", 61]
]}

* * *

tested on: human Factor 7 mRNA; test: Antisense inhibition of human Factor 7 mRNA in HepB3 cells, lipofectin, 50 nM, real-time RT-PCR; assay type: cell-based; conditions: Example 1; HepB3 cells, lipofectin, 50 nM, ~24 h, relative to untreated control cells
In the oligonucleotide strings, read from the 5' end, every base follows the letter of its sugar. An asterisk marks phosphorothioate; unmarked linkages are phosphodiester. Other units and linkages are bracketed, terminal groups are in braces. A string of capitals states the bases alone. e = 2'-O-(2-methoxyethyl) (MOE); [5mC] = 5-methylcytosine; d = 2'-deoxy (DNA)
The threshold is inclusive: % Inhibition (human Factor 7 mRNA) of exactly 60% counts as condition met; values below receive condition not met.

{"columns": ["substance", "tested.target", "assigned.category"],
 "data": [
  ["407917 (antisense eA*e[5mC]*eA*e[5mC]*e[5mC]*d[5mC]*d[5mC]*dA*dA*dA*dG*dT*dG*dG*d[5mC]*e[5mC]*e[5mC]*eA*e[5mC]*eG) [compound 407917]", "human Factor 7 mRNA", "condition met"],
  ["407942 (antisense e[5mC]*eA*e[5mC]*eA*eG*dG*dT*dG*dT*dG*d[5mC]*dG*dG*dA*dG*eG*eA*eG*eA*e[5mC]) [compound 407942]", "human Factor 7 mRNA", "condition not met"],
  ["407952 (antisense eG*eG*eA*eT*e[5mC]*d[5mC]*dT*dG*dG*dG*dA*dG*d[5mC]*dT*dA*e[5mC]*eA*eG*e[5mC]*e[5mC]) [compound 407952]", "human Factor 7 mRNA", "condition not met"],
  ["407634 (antisense eG*eT*eG*eA*e[5mC]*dT*dG*d[5mC]*dT*dG*d[5mC]*dA*dG*dG*d[5mC]*eA*eG*eT*e[5mC]*e[5mC]) [compound 407634]", "human Factor 7 mRNA", "condition not met"],
  ["407649 (antisense eG*eA*eG*eG*eG*dT*dT*d[5mC]*dA*dT*dT*dT*d[5mC]*dA*dG*eT*eG*eA*eT*eG) [compound 407649]", "human Factor 7 mRNA", "condition not met"],
  ["407900 (antisense e[5mC]*e[5mC]*e[5mC]*e[5mC]*eA*d[5mC]*dA*dA*dT*dT*d[5mC]*dG*dG*d[5mC]*d[5mC]*eT*eT*eG*eG*eG) [compound 407900]", "human Factor 7 mRNA", "condition met"],
  ["407639 (antisense eT*eT*eT*eG*e[5mC]*dA*dG*d[5mC]*d[5mC]*dA*d[5mC]*dT*d[5mC]*dG*dA*eT*eG*eT*eA*e[5mC]) [compound 407639]", "human Factor 7 mRNA", "condition met"],
  ["407618 (antisense eG*eT*eA*eT*eT*dT*dT*dT*d[5mC]*d[5mC]*dA*d[5mC]*dA*dT*dG*eG*eA*eT*eA*eT) [compound 407618]", "human Factor 7 mRNA", "condition not met"],
  ["407667 (antisense eG*eT*eG*eG*e[5mC]*d[5mC]*dA*dT*dG*d[5mC]*d[5mC]*d[5mC]*dT*dG*dG*eG*eT*e[5mC]*eA*eG) [compound 407667]", "human Factor 7 mRNA", "condition met"],
  ["407920 (antisense eT*eG*eA*eG*e[5mC]*dG*d[5mC]*dA*dT*dG*dA*dG*d[5mC]*dT*dT*eT*eT*eG*e[5mC]*eA) [compound 407920]", "human Factor 7 mRNA", "condition met"],
  ["407945 (antisense eA*eA*eT*e[5mC]*eA*dT*dG*dG*dG*d[5mC]*dA*dA*d[5mC]*d[5mC]*d[5mC]*eA*eG*eT*eG*eG) [compound 407945]", "human Factor 7 mRNA", "condition not met"],
  ["407889 (antisense eT*e[5mC]*e[5mC]*eT*eG*dG*dG*dT*dT*dA*d[5mC]*dG*dA*dA*dG*eA*e[5mC]*eT*eG*e[5mC]) [compound 407889]", "human Factor 7 mRNA", "condition not met"],
  ["407595 (antisense eT*e[5mC]*e[5mC]*eT*eG*dA*dG*dG*d[5mC]*d[5mC]*dT*dT*dA*dG*d[5mC]*eG*eA*e[5mC]*e[5mC]*e[5mC]) [compound 407595]", "human Factor 7 mRNA", "condition met"],
  ["407930 (antisense e[5mC]*eA*eA*eT*eG*dA*dA*dG*dG*d[5mC]*dA*dG*dA*dG*d[5mC]*eA*eG*e[5mC]*eA*eG) [compound 407930]", "human Factor 7 mRNA", "condition met"],
  ["407628 (antisense eT*eG*eA*eT*eG*dA*d[5mC]*d[5mC]*dT*dG*d[5mC]*dG*d[5mC]*d[5mC]*dA*e[5mC]*e[5mC]*e[5mC]*eG*e[5mC]) [compound 407628]", "human Factor 7 mRNA", "condition not met"],
  ["407666 (antisense eT*e[5mC]*e[5mC]*e[5mC]*e[5mC]*dA*dG*dG*dA*d[5mC]*dA*dT*d[5mC]*dT*dG*eG*eA*eA*e[5mC]*eT) [compound 407666]", "human Factor 7 mRNA", "condition not met"],
  ["407606 (antisense e[5mC]*eT*eG*eG*eT*d[5mC]*d[5mC]*dT*dT*dG*d[5mC]*dA*dG*dG*dA*eG*e[5mC]*e[5mC]*e[5mC]*e[5mC]) [compound 407606]", "human Factor 7 mRNA", "condition met"],
  ["407902 (antisense e[5mC]*eA*e[5mC]*e[5mC]*e[5mC]*dA*dG*dA*dT*dG*dG*dT*dG*dT*dT*eG*eA*eT*e[5mC]*eA) [compound 407902]", "human Factor 7 mRNA", "condition met"],
  ["407891 (antisense e[5mC]*eA*eT*eG*eG*dA*d[5mC]*dT*dT*dG*dA*dG*dG*d[5mC]*dA*e[5mC]*eA*e[5mC]*eT*eG) [compound 407891]", "human Factor 7 mRNA", "condition met"],
  ["407932 (antisense eG*eA*eA*e[5mC]*e[5mC]*dA*dG*dA*dA*dA*dA*dG*dT*dG*dA*eG*eA*eG*e[5mC]*eT) [compound 407932]", "human Factor 7 mRNA", "condition not met"],
  ["407946 (antisense eT*e[5mC]*e[5mC]*eA*eA*dA*dA*dA*dT*dG*dA*dA*dT*d[5mC]*dA*eT*eG*eG*eG*e[5mC]) [compound 407946]", "human Factor 7 mRNA", "condition not met"]
]}
